Tested on: U-251
experimentSummary: NCI tumour cell line growth inhibition, 48 h
Calls of active or inactive are those of the source. Cut-off read from the data, not from the text of the source: active = GI50 up to about 1.1 µM and inactive = higher.
valueType: GI50

Some solved entries appear below for comparison.
CCCCCCCCCCC(O)C1CCC(C2CCC(C(O)CCCCC(O)CCCCCC(O)CC3=CC(C)OC3=O)O2)O1 (stereo not given): > 25 µM (inactive)
CC1=C(C(=O)Nc2ccccc2C)C(c2ccc(N(C)C)cc2)C(C(=O)Nc2ccccc2C)=C(C)N1: > 100 µM (inactive)
O=C(Nc1cnc(O)nc1O)Oc1ccccc1: > 100 µM (inactive)
N#Cc1nc(NC(=O)c2ccccc2)sc1N: > 10 µM (inactive)
Cc1[nH]n(-c2ncc(C#N)c(=O)[nH]2)c(=O)c1CCO: > 100 µM (inactive)
O=[N+]([O-])c1cccc(-c2csc(N/N=C3\NC/C(=C/c4ccc5c(c4)OCO5)S3)n2)c1: 33.4 µM (inactive)

Known value: U-251 GI50 of the molecule NC(CCCCCCCCCCP(=O)(O)O)C(=O)O (stereo not given) equals > 100 µM (inactive)

Entry Cc1ccc2nc3ccccc3c(C3C4C(=O)N(c5ccc(Br)cc5Cl)C(=O)C4ON3C(C(N)=O)c3ccccc3)c2c1 (stereo not given) ; assay system U-251; GI50 recorded at > 25 µM (inactive)

I looked up Cc1cc([N+](=O)[O-])c(S(=O)(=O)c2ccccc2)c([N+](=O)[O-])c1 and its GI50 for U-251 was 13.5 µM (inactive)

Test item COc1ccc2c(c1)CCc1c-2n(CCN2CCOCC2)c2ccc(OC)cc12 ; U-251; reported GI50 was > 100 µM (inactive)

---

System: SNB-19
experimentSummary: NCI tumour cell line growth inhibition, 48 h
Calls of active or inactive are those of the source. No stated cut-off is given here; in the data, active = GI50 up to about 1.1 µM and inactive = higher.
A correct response names exactly one class from active, inactive

OC(CN1CCCCC1)c1ccc(/C=C/c2ccc(Cl)cc2)cc1 (centres undefined): inactive

Ask | Just curious, what result did CN(C)/C=N\c1nncc2[nH]nnc12 get here?
Reply | inactive

Ask | Recorded call for O=c1cc(-c2ccccc2)oc2ccc(Cl)cc12 ?
Reply | inactive

Ask | Could you kindly confirm the outcome this assay logged for CC(=O)Nc1nc2c(=O)c3ccccc3sc2s1 ?
Reply | inactive

Ask | Short answer needed: outcome of this test for Nc1c(-c2ccc(Cl)cc2Cl)[n+]([O-])c2ccccc2[n+]1[O-] ?
Reply | inactive

Ask | Please let me know the test result on file for CC1(C)O[C@@H]([C@@H](O)[C@H](O)C2SCCCS2)[C@@H](CO)O1 .
Reply | inactive

Ask | Assay outcome for CC(C)(CN1CCCCC1)C(=O)CC(SCCS(=O)(=O)O)c1ccc(Br)cc1 (centres undefined) : what was it?
Reply | inactive

Ask | What classification did CC(C)c1c(P(=O)(c2ccccc2)c2ccccc2)n(C)c2ccccc12 end up with in this test?
Reply | inactive

Ask | Which outcome did this test record for the compound Clc1ccc2c(c1)[nH]c1c2nc2ccccn21 ?
Reply | inactive

Ask | Tell me the assay call for COc1cc([C@@H]2c3cc4c(cc3[C@H](OC3OC5COC(c6ccco6)OC5C(O)C3O)C3COC(=O)[C@@H]32)OCO4)cc(OC)c1OC (some centres undefined) please.
Reply | inactive

Ask | Could you please tell me the result logged for CNc1ncnc2c1cnn2CCCCO in this assay?
Reply | inactive

Ask | Just curious, what result did C1C2CC3CC1CC(c1nn4c(C56CC7CC(CC(C7)C5)C6)nnc4s1)(C2)C3 get here?
Reply | inactive

Ask | Called result for Cc1cc(NS(=O)(=O)c2ccc(Nc3c4ccccc4nc4c(C(=O)Nc5ccc(S(=O)(=O)N=C(N)N)cc5)ccc(Cl)c34)cc2)no1
Reply | inactive

Ask | Identify the outcome logged in this assay for the compound shown: CCCS(=O)OC1C(C2COC(C)(C)O2)OC2OC(C)(C)OC21 (centres undefined)
Reply | inactive

Ask | Each compound tested received a call. Report the one for CN(C)c1ccc2c(c1)C(=O)N(OS(=O)(=O)c1ccc([N+](=O)[O-])cc1)C2=O .
Reply | inactive

Ask | Identify the outcome logged in this assay for the compound shown: O=C(OC(/C=C/c1ccccc1)P1(=O)N(Cc2ccccc2)[C@@H]2CCCC[C@H]2N1Cc1ccccc1)c1ccccc1 (some centres undefined)
Reply | inactive

Ask | Called result for COc1ccc(NCc2cc(OC)c(OC)c(OC)c2)cc1
Reply | inactive

Ask | Assay outcome for CC1OC(OC2C(O[C@H]3CC[C@@]4(C)C(=CC[C@H]5[C@@H]6C[C@@H]7O[C@]8(CC[C@@H](C)CO8)[C@@H](C)[C@@H]7[C@@]6(C)CC[C@@H]54)C3)OC(CO)C(O)C2O)C(O)C(O)C1O (some centres undefined) : what was it?
Reply | active

Ask | Which outcome did this test record for the compound O=C(c1ccccc1)C(C(=O)c1ccccc1)C1(O)C(=O)c2ccccc2C1=O ?
Reply | inactive
